target: Cytochrome P450 3A4 (Homo sapiens) (UniProt P08684); experiment: Cytochrome panel assay with activity outcomes; conditions: recombinant CYP, pro-luciferin dealkylation, luminescence, p450-cyp3a4; series mostly up to 57.1 µM
Sequence (P08684 whole entry, looked up): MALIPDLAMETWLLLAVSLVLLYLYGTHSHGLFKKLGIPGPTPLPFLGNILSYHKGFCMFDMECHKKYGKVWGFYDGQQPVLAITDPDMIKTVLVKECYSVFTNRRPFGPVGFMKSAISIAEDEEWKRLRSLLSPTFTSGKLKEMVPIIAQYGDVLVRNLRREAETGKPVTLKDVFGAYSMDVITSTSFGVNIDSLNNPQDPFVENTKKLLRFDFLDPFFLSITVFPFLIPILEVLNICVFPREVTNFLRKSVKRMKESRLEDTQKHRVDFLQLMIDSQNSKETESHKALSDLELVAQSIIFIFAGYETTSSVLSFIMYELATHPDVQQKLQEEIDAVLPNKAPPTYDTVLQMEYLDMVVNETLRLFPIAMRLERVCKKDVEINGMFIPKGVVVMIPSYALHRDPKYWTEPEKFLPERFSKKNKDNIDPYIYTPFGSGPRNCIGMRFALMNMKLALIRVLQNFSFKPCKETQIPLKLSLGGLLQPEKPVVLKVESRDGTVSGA
The campaign covered roughly 16,000 compounds. About 5,100 (32%) were called active. About 25% were inconclusive and are not listed. The call rests on the fitted dose curve; in most records, active means well fitted curve in the direction sought with a large enough effect; inconclusive means small, poorly fitted or top-dose-only effect, or effect the other way; inactive means no such curve, though single readings can be large or run the other way. Some of the results follow.
API: response.call in active, inactive

# example entries with known answers
{"columns": ["molecule", "classLabel"],
 "data": [
  ["FC(F)(F)c1cc(C(F)(F)F)c2ccc(N/N=C/c3cccc(Cl)c3)nc2n1", "inactive"],
  ["COc1ccc2oc(-c3ccc(C)c(NC(=O)CSc4ccc(Cl)cc4)c3)nc2c1", "active"],
  ["CCOCC(=O)Nc1cc(-c2cn3cccnc3n2)ccc1C", "inactive"],
  ["Cc1ccccc1-c1cncnc1N(C)Cc1ccco1", "active"],
  ["Cc1ccc(NC(=O)CSCC(=O)Nc2ccc(N3CCOCC3)c(Cl)c2)cc1", "active"],
  ["O=c1n(CCCN2CCN(c3cccc(Cl)c3)CC2)nc2ccccn12", "inactive"]
]}

Write down the call the test reported for this molecule. Item: `CO/N=C(\C(=O)N[C@@H]1C(=O)N2C(C(=O)[O-])=C(C[N+]3(C)CCCC3)CS[C@@H]12)c1csc(N)n1` inactive

Write down the call the test reported for this molecule. Item: `COc1ccc(N(CC(=O)N/N=C/c2cccs2)S(=O)(=O)c2ccc(OC)c(OC)c2)cc1` active

Write down the call the test reported for this molecule. Item: `Cc1nc(-c2cccnc2)sc1C(=O)Nc1ccc(Cl)cc1` active

Write down the call the test reported for this molecule. Item: `O=C(CN(c1ccccc1)S(=O)(=O)c1ccccc1[N+](=O)[O-])NN=C1CCCCCCC1` inactive

Write down the call the test reported for this molecule. Item: `O=C(Nc1ccc(Cl)cc1)c1cnc(-c2ccccc2)nc1-c1ccccc1` inactive

* * *

target: Cytochrome P450 3A4 (Homo sapiens); assay: Cytochrome panel assay with activity outcomes; conditions: recombinant CYP, pro-luciferin dealkylation, luminescence, p450-cyp3a4; series mostly up to 57.1 µM
In all, about 16,000 compounds went through this assay and about 5,100 (32%) were called active. Not shown: some 25% with an inconclusive outcome. Calls come from the whole dose curve; as a rule, active = well fitted curve in the direction sought with a large enough effect; inconclusive = small, poorly fitted or top-dose-only effect, or effect the other way; inactive = no such curve, though single readings can be large or run the other way. The list shows a part of the results.
API: response.call in true (1) for active, false (0) for inactive

# example entries with known answers
{"columns": ["compound", "classLabel"],
 "data": [
  ["O=C1C2Sc3[nH]c(=O)sc3C(c3ccccc3)C2C(=O)N1c1ccc(Cl)cc1 (configuration not stated)", "true (1)"],
  ["COc1ccc2[nH]cc(CCNc3cc(-c4ccccc4C(F)(F)F)ncn3)c2c1", "true (1)"],
  ["O=C(c1ccccc1Nc1ccc(SC(F)F)cc1)N1CCCCC1", "true (1)"],
  ["CCCSc1nc(C)cc(C)c1S(=O)(=O)c1ccccc1C", "false (0)"],
  ["Cc1ccccc1-c1cncnc1NC1CCNCC1", "true (1)"],
  ["CCCCN=c1sc(C(=O)OC)cc(=O)n1CCCC", "false (0)"],
  ["COc1ccc2[nH]cc(CCNc3cc(-c4ccccc4C)ncn3)c2c1", "true (1)"],
  ["N/C(=N\\OC(=O)Cc1ccc(Cl)cc1)c1cccnc1", "true (1)"]
]}

Write down the call the test reported for this compound. Item: `Cc1oc(-c2ccccc2)cc1C(=O)Nc1ccc(N(C)C)cc1` true (1)

Write down the call the test reported for this compound. Item: `COC(=O)C/C=C\[C@@H](C)[C@@H](/C=N\O[C@@H](C)c1cc(-c2c(C)cc(C)cc2C)no1)NS(=O)(=O)c1ccc(C)cc1` true (1)

Write down the call the test reported for this compound. Item: COc1cc(C2C(=O)N(C3CCCC3)CC(=O)N2Cc2ccco2)ccc1OC(C)C (configuration not stated) true (1)

Write down the call the test reported for this compound. Item: `c1cncc(-c2cncnc2NC2CCNCC2)c1` false (0)
